// data source = the nanobody polyreactivity screen of Harvey et al. (2022)

Measurement notes: yeast display, Sf9 membrane polyspecificity reagent, FACS + sequencing; frameworks hold sequencing errors
Measured quantity: polyreactivity (PSR sort gate)

Sample records with polyreactivity (PSR sort gate):
>  <Sequence content>
QVQLVESGGGLVQAGGSLRLSCAASGRISGYKVMGWYRQAPGKERELVAAISGSGGSTYYADSVKGRFTISRDNAKNTVYLQMNSLKPEDTAVYYCAKATAYPYDYWGQGTQVTVSS

>  <polyreactivity (PSR sort gate)>
low polyreactivity

$$$$
>  <Sequence content>
QVQLVESGGGLVQAGGSLRLSCAASGIISYKNVMGWYRQAPGKERELVAAISGRGGSTYYADSVKGRFTISRDNAKNTVYLQMNSLKPEDTAVYYCAKYPGISGYNYWGQGTQVTVSS

>  <polyreactivity (PSR sort gate)>
high polyreactivity

$$$$
>  <Sequence content>
QVQLVESGGGLVQAGGSLRLSCAASGITFSPYAMGWYRQAPGKERELVAAISSRGGSTYYADSVKGRFTISRDNAKNTVYLQMNSLKPEDTAVYYCNALTFVRYLFHYTYWGQGTQVTVSS

>  <polyreactivity (PSR sort gate)>
high polyreactivity

$$$$
>  <Sequence content>
QVQLVESGGGLVQAGGSLRLSCAASGSTFGWYAMGWYRQAPGKERELVASISSGGSTNYADSVKGRFTISRDNAKNTVYLQMNSLKPEDTAVYYCAARGGYWWYRYGYWGQGTQVTVSS

>  <polyreactivity (PSR sort gate)>
high polyreactivity

$$$$
>  <Sequence content>
QVQLVESGGGLVQAGGSLRLSCAASGSTFAFNAMGWYRQAPGKEREFVARITWTYGSTYYADSVKGRFTISRDNAKNTVYLQMNSLKPEDTAVYYCARDPTEQAIARWTYDYWGQGTQVTVSS

>  <polyreactivity (PSR sort gate)>
low polyreactivity

$$$$

Give the measured polyreactivity (PSR sort gate) of QVQLVESGGGLVQAGGSLRLSCAASGFIFDGYAMGWYRQAPGKERELVADISSVGSTYYADSVKGRFTISRDNAKNTVYLQMNSLKPEDTAVYYCAAVRFYTYNYWGQGTQVSVSS .
low polyreactivity

Now give it for QVQLVESGGGLVQAGGSLRISCAASGLIFGRYAMGWYRQAPGKERELVAAISSSGVRTYYADSVKGRFTISRDNAKNTVYLQMNSLKPEDTAVYYCAAAYWSSREDTVIKRYYWGQGTQVTVSS too.
high polyreactivity

Now give it for HVQLVESGGGLVQEGGRLRLSCAASGFIFQVNAMGWYRQAPGKERELVAAITGSDGSTSYADSVKGRFTISRDNAKNNVYLQMNSLKPEDTAVYYCAKEESVSTHYYHLIRFDQWGQGTQVTVSS too.
low polyreactivity

Now give it for QVQLVESGGGLVQAGGSLSLSCAASGRIIGFNAMGWYRQAPGKERELVASIRTTGGSTRYADSVKGRFTISRDNAKNTVYLQMNSLKPEDTAVYYCAARWGKTLWQYNYWGQGTQVTVSS too.
high polyreactivity

Now give it for QVQLVESGGGLVQAGGSLRLSCAASGSISYRYAMGWYRQAPGKERELVAGISRSGGSTSYADSVKGRFTISRDNAKNTVYLQMNSLKPEDTAVYYCNRPSSLAWPWTGSFSRYDYWGQGTQVTVSS too.
low polyreactivity

* * *

Measurement notes: yeast display, Sf9 membrane polyspecificity reagent, FACS + sequencing; frameworks hold sequencing errors
Measured quantity: polyreactivity (PSR sort gate)

Sample records with polyreactivity (PSR sort gate):
>  <Sequence content>
QVQLVESGGGLVQAGGSLRLSCAASGSTFEYYAMGWYRQAPGKERELVATMSIDGRTNYADSVKGRFTISRDNAKNTVYLQMNSLKPEDTAVYYCAARPYWRHRYDYWGQGTQVTVSS

>  <polyreactivity (PSR sort gate)>
low polyreactivity

$$$$
>  <Sequence content>
QVQLVESGGGLVQAAGSLRVSCAASGSTFSWNPMGWSIQAPGKERELVAASTSGGRTYYADSVKGRFTISRDNAKNTVYLQMNSLKPADTAVYYCAAYATIYRDMGYWGHGTQVTVSS

>  <polyreactivity (PSR sort gate)>
high polyreactivity

$$$$
>  <Sequence content>
QVQLVESGGGLVQAGGSLRLSCAASGRIFVKYAMGWYRQAPGKERELVARITRGGRTNYADSVKGRFTISRDNAKNTVYLQMNSLKPEDTAVYYCNAGWGMRLSWLGNYWGQGTQVTVSS

>  <polyreactivity (PSR sort gate)>
high polyreactivity

$$$$
>  <Sequence content>
QVQLQESGGGLVQAGGSLRLSCAASGTISPLPAMGWYRQAPGKEREFVAGIDTGAITNYADSVKGRFTISRDNAKNTVYLQMISLKPEDTAVYYCAVFPAAYYYYERFYTYWGQGTQVTVSS

>  <polyreactivity (PSR sort gate)>
low polyreactivity

$$$$
>  <Sequence content>
QVQLVESGGGLVQSGGSLRLSCAASGRIFARNAMGWYRQAPGKEREFVAAITFSGGSTYYADSVKGRFTISRDNAKNTVYLQMNSLKPEDTAVYYCAARSWRVLTREDYWGQGTQVTVSS

>  <polyreactivity (PSR sort gate)>
high polyreactivity

$$$$
>  <Sequence content>
QVQLVESGGGLVQAGGSLRLSCAASGFTFSRNAMGWYRQAPGKERELVAAIDSGGSTDYADSVKGRFTISRDNAKNTVYLQMNSLKPEDTAVYYCAIASSATRYVQLRQDYDYWGQGTQVTVSS

>  <polyreactivity (PSR sort gate)>
low polyreactivity

$$$$

Give the measured polyreactivity (PSR sort gate) of QVQLVESGGGLVQAGGSLRLSCAASGSTFFPYAMGWYRQAPGKVRELVAAIRWSGGRTYYADSVKGRFTISRDNAKNTVFLQMNSLNPEDTAVYYCAAYKYLDYDYGGQGTQVTVSS .
high polyreactivity

Now give it for QVQLVESGGGLVQAGGSLRLSCAASGRIFLRYAMGWYRQAPGKERELVAVISSGGSTYYADSVKGRFTISSDNAKNTVYLQMNSLKPEDSAVYYCAASRHDSRYQYDYWGQGTQVTVSS too.
high polyreactivity

Now give it for QLQLVESGGGFVQAGGSLRLSCDASGSTFGNYTMGWYRQAPGKERELVAAISFSGGRTYYADSVKGRFTISRDNAKNTVYLQMNSLKPADTAVYYCAKRSYGYSAFIYNYWGQGTQVTVSS too.
high polyreactivity

Now give it for QVQLVESGGGLVQAGGSLRLSCAASGSIFAYAMGWYRKAPGKEREFVAAISGGSTYYADSVKGRFTISRDNAKNTVYLQMNSLKPEDTAVYYCAADLDDERYYWGQGTQVTVSS too.
low polyreactivity

Now give it for QVQLLESGGGLVQAGGSLRLSCAASGSIFYPYALGWYRQAPGKERELVAGISRSGASTYYADSVKGRFTISRDKAKNTVYLQMNSLKPEDTAVYYCAADDWTRNYWGQGTQVTVSS too.
low polyreactivity

* * *

Measurement notes: yeast display, Sf9 membrane polyspecificity reagent, FACS + sequencing; frameworks hold sequencing errors
Measured quantity: polyreactivity (PSR sort gate)

>  <Sequence content>
QVQLQESGGGLVQAGGSLRLSCAASGTISDSGLMGWYRQAPGKERELVAGISSGGITNYADSVKGRFTISRDNAKNTVYMQMNSLKPEDTAVYWGQGSQVTVSS

>  <Result>
low polyreactivity

$$$$
>  <Sequence content>
QVQLVESGGGLVQAGGSLRLSCAASGYTFRGYAMGWYRQAPGKEREFVAAINWSDGSTYYADSVKGRFTISRDNAKNTVYLQMNSLKPEDTAVYYCNADQYYRVPDNYWGQGTLVTVSS

>  <Result>
low polyreactivity

$$$$

* * *

Measurement notes: yeast display, Sf9 membrane polyspecificity reagent, FACS + sequencing; frameworks hold sequencing errors
Measured quantity: polyreactivity (PSR sort gate)

Sample records with polyreactivity (PSR sort gate):
>  <Sequence content>
QVQLVESGGGLVQAGGSLRLSCAASGLTFPYYAMGWYRQAPGKERELVATISWSSISTYYADSVKGRFTISRDNAKNTVYLQMNSLKPEDTAVYYCNARYSLRRGYDYWGQGTQVTVSS

>  <polyreactivity (PSR sort gate)>
low polyreactivity

$$$$
>  <Sequence content>
QVQLVESGGGLVQAGGSLRLSCAASGFIFTRNAMGWYRQAPGKERELVAAISASGGRTYYADSVKGRFTISRDNAKNTVYLQMNSLKPEDTAVYYCNTGIYVARSTYGRFKYDYWGQGTQVTVSS

>  <polyreactivity (PSR sort gate)>
high polyreactivity

$$$$
>  <Sequence content>
QVQLVESGGGLVQAGGSLRLSCAASGSTFTRYAMGWYRQAPGKERELVASISRSGNTYYADSVKGRFTISRDNAKNTVYLQMNSLKPEDTAVNYCAAKRKSYYSYNFDYWGQGTQVTVSS

>  <polyreactivity (PSR sort gate)>
high polyreactivity

$$$$
>  <Sequence content>
QVQLVESGGGLVQARGSHRISCAASGRTITFNAMGWYRQAPGKQRELVAGIDLSTTSTYYADSVKGRFTISRDNAKNTVYLQMNSLKPEDCAVYYCNAYRNADYDYWGQGTLVTVSS

>  <polyreactivity (PSR sort gate)>
low polyreactivity

$$$$
>  <Sequence content>
QVQLVESGGGLVQAGGSLRLSCAASGYIFPGNAMGWYRQAPGKERELVAAINWSGTRTYYADSVKGRFTISRDNAKNTVYLQLNSLKPEDTAVYYCNRVWRVPIETYTRYDYWGQGTQVTVSS

>  <polyreactivity (PSR sort gate)>
high polyreactivity

$$$$
>  <Sequence content>
QVQLVESGGGLVQAGGSLRLSCAASGSIFATYAMGWYRQAPGKERELVAAISSSGSRTYYADSVKGRFTISRDNAKNTVYLQMNSLKPEDTAVYYCAKAYLSPYQYDYWGQGTQVTVSS

>  <polyreactivity (PSR sort gate)>
high polyreactivity

$$$$
>  <Sequence content>
QVQLVESGGGLVQAGGSLRLSCAASGFTLDPYAMGWYRQAPGKERELVAAIRLSGSSTYYADSVKGRFTISRDNAKNTVYLQMNSLKPEDTAVYYCAADGISHWMYRYDYWGQGTQVTVSS

>  <polyreactivity (PSR sort gate)>
low polyreactivity

$$$$
>  <Sequence content>
QVQLVESGGGLVQAGGSLRLSCAASGNIFGHYTMGGYRQAPGKERELVAAISRTGGRTYYADSVKGRFTISRDNAKKTVYLQMNSLKPEDTAVYYCAADKGGTYFNGDSWGQGTQVTVSS

>  <polyreactivity (PSR sort gate)>
high polyreactivity

$$$$

Give the measured polyreactivity (PSR sort gate) of QVQLVESGGGLVQAGGSLRLSCAASGRTFRLYAMGWYRQAPGKERELVATITSSGGSTYYADSVKGRFTISRDKAKNTVYLQMNSLKPEDTAVYYCAAQTYYSYDYWGQGTQVTVSS .
low polyreactivity

Now give it for QVQLVESGGGLVQAGGSLRLSCAASGRIFYWYVMGWYRQAPGKERELVATIRYSGGNTYYADSVKGRFTISRDNAKNTVYLQMNSLKPEETEVYYCAAGSLYWGRSPTRGGQGGYWGQGTQVTVSS too.
high polyreactivity

Now give it for QVQLVESGGGLVQAGGSLRLSCAASGRIFGSYAMGWYRQAPGKERELVAAINWRGGSTFYADSVKGRFTISRDNAKNTVYLQMNSLKPEDTAVYSCARRGYRQSGDYWGQGTQVTVSS too.
low polyreactivity
